# ASSAYED_TARGET: Activated CDC42 kinase 1 (Homo sapiens); note: in the data inactive means no Kd found up to 30 µM
# Sequence (Q07912 whole entry): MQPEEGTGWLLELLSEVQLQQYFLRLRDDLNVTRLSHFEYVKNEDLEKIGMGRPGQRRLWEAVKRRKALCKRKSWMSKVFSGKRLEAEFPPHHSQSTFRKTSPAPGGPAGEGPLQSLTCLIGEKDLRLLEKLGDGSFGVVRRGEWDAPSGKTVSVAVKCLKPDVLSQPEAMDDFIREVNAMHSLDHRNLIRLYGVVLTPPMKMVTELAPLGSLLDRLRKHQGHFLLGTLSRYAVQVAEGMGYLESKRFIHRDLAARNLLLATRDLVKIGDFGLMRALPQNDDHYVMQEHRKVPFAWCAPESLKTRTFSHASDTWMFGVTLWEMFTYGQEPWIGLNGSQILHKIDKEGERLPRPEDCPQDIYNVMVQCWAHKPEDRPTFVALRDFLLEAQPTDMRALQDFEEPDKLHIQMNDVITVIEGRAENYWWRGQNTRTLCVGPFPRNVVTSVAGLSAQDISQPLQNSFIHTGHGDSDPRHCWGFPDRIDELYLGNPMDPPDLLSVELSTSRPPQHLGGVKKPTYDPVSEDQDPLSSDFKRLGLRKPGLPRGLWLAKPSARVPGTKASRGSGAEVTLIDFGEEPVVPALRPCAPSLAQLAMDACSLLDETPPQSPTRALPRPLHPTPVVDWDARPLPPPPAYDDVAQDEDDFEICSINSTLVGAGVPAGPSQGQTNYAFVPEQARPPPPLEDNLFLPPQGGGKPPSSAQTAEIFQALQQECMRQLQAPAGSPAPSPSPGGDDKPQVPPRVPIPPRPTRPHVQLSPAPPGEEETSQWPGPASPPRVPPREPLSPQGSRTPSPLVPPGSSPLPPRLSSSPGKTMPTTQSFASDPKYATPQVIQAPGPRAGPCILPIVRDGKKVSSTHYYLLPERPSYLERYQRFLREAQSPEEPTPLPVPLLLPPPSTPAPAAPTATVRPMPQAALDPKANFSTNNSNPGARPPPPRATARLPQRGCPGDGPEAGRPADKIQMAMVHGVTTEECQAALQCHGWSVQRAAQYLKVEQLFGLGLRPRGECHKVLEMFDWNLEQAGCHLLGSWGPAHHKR
Counter-ions that a name gives are not always drawn. Calls of active or inactive are those of the source.
Classes used: active, inactive

COc1c(OCCCN2CCOCC2)ccc2c1N=C(NC(=O)c1cnc(N)nc1)N1CCN=C21 [COPANLISIB]; inactive
CCn1c(C(=O)N(C2CC2)C2CC2)cc2c3c(ncn3C)c(Nc3cc(C)n(C)n3)nc21 [BMS-911543]; inactive
CCS(=O)(=O)N1CCN(c2ccc(Nc3ncc(C(N)=O)c(NC4CC4)n3)cc2)CC1 [Cerdulatinib Hydrochloride]; inactive
C[C@@H](NC(=O)c1ncnc(N)c1Cl)c1ncc(C(=O)Nc2cc(C(F)(F)F)c(Cl)cn2)s1 [TOVORAFENIB]; inactive
COc1ncc(-c2ccc3nccc(-c4ccnnc4)c3c2)cc1NS(=O)(=O)c1ccc(F)cc1F [OMIPALISIB]; inactive
CCS(=O)(=O)c1cccc(-c2cc(C(=O)NC3CCN(C)CC3)c(C)c3[nH]c4ncc(C)cc4c23)c1 [TAK-901]; active
COCC(=O)NC/C=C/c1ccc2ncnc(Nc3ccc(Oc4ccc(C)nc4)c(C)c3)c2c1 [CP-724714]; inactive
CN(C[C@@H]1COCCO1)S(=O)(=O)Nc1ccc2ccc3ncc(-c4cnn(C)c4)cc3c(=O)c2c1 [MK-2461]; inactive
COCc1c(-c2ccc(NC(=O)Nc3cc(C(F)(F)F)ccc3F)c(F)c2)c2c(N)ncnn2c1CN1CCOCC1; inactive
Nc1ncnc2c1c(-c1cccc(OCc3ccccc3)c1)cn2[C@H]1C[C@@H](CN2CCC2)C1 [AEW-541]; inactive
CO[C@H]1C[C@@H]2CC[C@@H](C)[C@@](O)(O2)C(=O)C(=O)N2CCCC[C@H]2C(=O)O[C@H]([C@H](C)C[C@@H]2CC[C@@H](OC(=O)C(C)(CO)CO)[C@H](OC)C2)CC(=O)[C@H](C)/C=C(\C)[C@@H](O)[C@@H](OC)C(=O)[C@H](C)C[C@H](C)/C=C/C=C/C=C/1C [TEMSIROLIMUS]; inactive
O=C(Nc1c[nH]nc1-c1nc2cc(CN3CCOCC3)ccc2[nH]1)NC1CC1 [AT-9283]; inactive
Cn1cnc2c(F)c(Nc3ccc(Br)cc3F)c(C(=O)NOCCO)cc21 [BINIMETINIB]; inactive
O=C(Cc1ccc(-c2ccc(OCCN3CCOCC3)cc2)cn1)NCc1ccccc1 [TIRBANIBULIN]; inactive
Cc1cc(C(=O)NOCCO)c(Nc2ccc(I)cc2F)n(C)c1=O [AZD-8330]; inactive
